test system: TK-10; assay: NCI tumour cell line growth inhibition, 48 h
Activity calls are given as the source filed them. Rule as the data show it: active = GI50 up to about 1.1 µM and inactive = higher.
Hi there, I'd appreciate the recorded GI50 for every entry that follows.

Recorded GI50, per entry:
N#CC1=C(N)C(C#N)(C#N)C(c2ccc(F)cc2)C=C1C1CC1 (centres undefined) :: 15.5 µM (inactive)
COc1cc2c(c(OC)c1OC)-c1ccc(OC)c(=O)cc1C(NC(=O)CCCCCNc1ccc(N=[N+]=[N-])cc1[N+](=O)[O-])CC2 (centres undefined) :: 0.0426 µM (active)
C[C@]12C[C@H](O)[C@H]3[C@@H](CCC4=CC(=O)CC[C@@]43C)[C@@H]1CC[C@@H]2c1csc(-c2ccccc2)n1 :: 26.1 µM (inactive)

Below: the item to evaluate.
Please report the recorded GI50 for C[Si](C)(C)CC(N)=O .
> 100 µM (inactive)

----------
tested on: TK-10; assay: NCI tumour cell line growth inhibition, 48 h
The source made the active and inactive calls. Cut-off read from the data, not from the text of the source: active = GI50 up to about 1.1 µM and inactive = higher.
VALUE KIND: GI50

Solved entries (count: 5):
Nc1ccccc1C(=O)/C=C/c1ccccc1O :: 93.5 µM (inactive)
O=S(=O)(O)c1cccc2c(/N=N/c3c(O)ccc4ccccc34)cccc12 :: > 100 µM (inactive)
Cc1nn(C(=O)Cc2ccccc2)c2c1C(c1ccccc1)SC(=N)N2 (stereo unspecified) :: > 100 µM (inactive)
CN1C/C(=C\c2ccco2)c2nc(N)nc(-c3ccco3)c2C1 :: > 100 µM (inactive)
Cc1ncc([N+](=O)[O-])n1CCN=[N+]=[N-] :: > 100 µM (inactive)

Here's the next entry for you.
For O=C1Nc2ccc(Cl)cc2C(=O)N2CCC[C@@H]12 , what is its reported GI50?
> 100 µM (inactive)

----------
tested on: NCI-H522; assay: NCI tumour cell line growth inhibition, 48 h
Activity calls are given as the source filed them. Cut-off read from the data, not from the text of the source: active = GI50 up to about 1.1 µM and inactive = higher.
So I've got a bunch of compounds here, and I need their GI50 values.

Example entries begin here.
CC1(O)/C(=N/O)CC2CC1C2(C)C (stereo unspecified) :: > 100 µM (inactive)
CC12CCC(=O)N1c1cncnc1N2 (stereo unspecified) :: > 10 µM (inactive)
Cc1nn(CN2CCN(C)CC2)c(=S)n1/N=C/c1ccc(-c2ccc(Cl)cc2Cl)o1 :: > 100 µM (inactive)
CCOc1cccc2cccnc12 :: > 100 µM (inactive)
CCN1CCCC(Nc2cc(C)nc(NC(=N)Nc3ccc(Cl)c(Cl)c3)n2)C1 (stereo unspecified) :: 1.24 µM (inactive)
O=C(Nc1ccc2ccccc2c1)Nn1cnnc1 :: > 100 µM (inactive)
C/C(=N/NC(=S)Nc1ccccc1Cl)c1cccc(/C(C)=N\NC(=S)Nc2ccccc2Cl)n1 :: 46.7 µM (inactive)
OCCCCCNc1ccnc2cc(Cl)ccc12 :: 87.5 µM (inactive)

Return reported GI50 values for all items listed beneath this line.
1. Cc1ccc(S(=O)(=O)n2c(-c3ccccc3)c(-c3ccccc3)c3ccccc32)cc1
2. N=C(N)NS(=O)(=O)c1ccc(NC(=O)c2cccn3c(=O)c4ccccc4nc23)cc1
3. CC(=O)Nc1ccc(/C=c2\sc3nnc(CCC(=O)Nc4ccccc4Cl)n3c2=O)cc1

1: > 100 µM (inactive); 2: 35 µM (inactive); 3: 18.7 µM (inactive)

----------
Please respond with reported GI50 for every item in the list.
system: MDA-N; assay: NCI tumour cell line growth inhibition, 48 h
Calls of active or inactive are those of the source. Rule as the data show it: active = GI50 up to about 1.1 µM and inactive = higher. Numbered stars: 1 amine (or outer) side, 2 acyl side, 3 side chain; on linkers, the order of the positions; unused ones are H or OH. Bridge positions count the residues as written; N and C are the ends. Square brackets hold non-standard residues; d marks the D form. Peptide text beside a SMILES is read from it. X58 = COc1c(N[*:1])cccc1C(=O)O[C@H](C(=O)[C@H](C)C(=O)[*:2])C(C)C; X57 = CC(C)C[C@H](C(=O)[*:2])C(C)C(=O)C1CCCN1[*:1]; NMeY = CN[C@@H](Cc1ccc(O)cc1)C(=O)O; Lac = C[C@H](O)C(=O)O

Dear reader, for each entry below, please note its GI50.
1. C=C1C(=O)OC2CC(C)C3C=CC(=O)C3CC12 (stereo unspecified)
2. Cc1cccc(-n2c(C)nc3ccc(NC4OC(CO)C(O)C(O)C4O)cc3c2=O)c1 (stereo unspecified)
3. COc1ccc(-n2nnc3c(C#N)c(-c4ccccc4)c(C)n3c2=O)cc1
4. Nc1c(C(=O)Nc2ccc([As](=O)(O)O)cc2)cnc2nnnn12
5. COC(=O)C1CN=CN1CCc1ccccc1 (stereo unspecified)

2.07 µM (inactive)
> 100 µM (inactive)
> 100 µM (inactive)
> 100 µM (inactive)
> 100 µM (inactive)

Go through the list and state GI50 for each entry.
1. Cc1c(O)nc(/C=C/C(=O)O)nc1C(=O)O
2. COC(=O)C1=C(C(=O)OC)SC(=C2c3ccsc3-c3sccc32)S1

1. > 100 µM (inactive)
2. 70.3 µM (inactive)

Required: GI50, one value per compound below.
1. CC1=NN(c2nc(N)nc(CSc3cc(Cl)c(C)cc3S(N)(=O)=O)n2)C(C)(C)C1
2. COc1ccc(C[C@H]2C(=O)O[C@H](C)[C@H](NC(=O)[C@@H](CC(C)C)C(C)C(=O)C3CCCN3C(=O)[C@H](C)O)C(=O)Nc3cccc(c3OC)C(=O)O[C@@H](C(C)C)C(=O)[C@H](C)C(=O)N[C@@H](CC(C)C)C(=O)N3CCC[C@H]3C(=O)N2C)cc1 (stereo partly specified) (H-[Lac][X57]T[X58]LP[NMeY](Me); ester 3-C)
3. COC(=O)/C=C\C(C#N)(C#N)/N=C/c1ccccc1
4. NNC(=O)c1ccccc1NC(=O)/C(=C/c1ccccc1)NC(=O)c1ccccc1

1. > 10 µM (inactive)
2. 10.1 µM (inactive)
3. 4.44 µM (inactive)
4. 72.4 µM (inactive)

Reference source for all entries: ChEMBL document CHEMBL1201862
